Tested on: BT-549
Assay Method Text: NCI-60 one-dose SRB screening
Format: cell-based
Test Settings: Homo sapiens, BT-549, Breast Cancer, 10 µM one dose, 48 h, read-out: growth percentage
Property Name: activity at 10 µM (%)
Answers are plain numbers, in %.

>>> print(df.to_string())
                                   compound  tested_system  measurement_unit  result
0  O=c1[nH]c(CNc2ccc(NCc3c(-c4ccccc4)no[n+]3[O-])cc2)nc2c1cnn2-c1ccccc1 [14a]         BT-549                 %    62.1

Hey, can you go through the list below and give me activity at 10 µM for every item?
1. Cc1nn(-c2ccc(Br)cc2)c2ncnc(Nc3ccc(OCc4c(-c5ccccc5)no[n+]4[O-])cc3)c12 [6g]
2. Cc1nn(-c2ccc(Br)cc2)c2nc(CCl)[nH]c(=O)c12 [13c]

Result:
104
101
